# Tested on: L1210 leukemia ip in BDF1 mice, survival T/C
# ASSAY SUMMARY: NCI In Vivo Anticancer Drug Screen. Data for tumor model L1210 Leukemia (intraperitoneal) in B6D2F1 (BDF1) mice
# MEASUREMENT CONTEXT: endpoint: mean survival time; dose: 75.0 mg/kg/injection; schedule: Q01DX001 (ip); vehicle: other; higher = longer survival
Inconclusive results and toxic doses are left out.
For each record, write down the corresponding T/C.

Some compounds with known T/C results, for comparison:
>  <COMPOUND>
O=C(NCCF)NC1C=CCCC1 (stereo unspecified)

>  <T/C>
100 % of control

$$$$
>  <COMPOUND>
OC1CCC2C3CC=CC3C12 (stereo unspecified)

>  <T/C>
93 % of control

$$$$
>  <COMPOUND>
ClC1=C(Cl)C2(Cl)C3C4CC(C(I)C4I)C3C1(Cl)C2(Cl)Cl (stereo unspecified)

>  <T/C>
98 % of control

$$$$

Dear colleague, could you please provide T/C for the compounds listed below?
1. O=C(/C=C/CBr)NC(Cc1ccccc1)C(=O)O (stereo unspecified)
2. NNc1ccccc1Cl
3. Clc1ccc(NP(Br)(c2ccccc2)(c2ccccc2)c2ccccc2)cc1

1: 104 % of control; 2: 102 % of control; 3: 107 % of control
